# Tested on: Mus musculus
# experiment description: Biodistribution in mouse B16F0 cells bearing C57B16 mouse tumor at 1.26 to 5.29 MBq, iv after 7 days
# Format: ADME, organism-based, Neoplasm
# test settings: in vivo, 168 h
experimental endpoint: Drug uptake (% ID/g)

CCN(CCNC(=O)c1cccc2c(=O)c3cc([125I])ccc3[nH]c12)CCOc1cccnc1F.Cl ... 4.3

[a] CCN(CCNC(=O)c1cnc2cc([125I])ccc2n1)c1cccc(F)n1
[b] CCN(CCNC(=O)c1cn2cc([125I])ccc2n1)CCOc1cccnc1F.Cl.Cl
[c] CCN(CCNC(=O)c1ccc2cc([125I])ccc2c1)CCOc1cccnc1F.Cl
[d] CCN(CCNC(=O)c1ccc2cncc([125I])c2n1)CCOc1cccnc1F.Cl.Cl
Your job: order these 4 records by Drug uptake, ascending. Submit the labels in the order that the ranking request calls for.
a, d, c, b

[a] CCN(CCNC(=O)c1cnc2cc([125I])ccc2n1)CCOc1cccnc1F.Cl.Cl
[b] CCN(CCNC(=O)c1cccc2nc3cc([125I])ccc3nc12)CCOc1cccnc1F.Cl.Cl
[c] CCN(CCNC(=O)c1ccc2cc([125I])ccc2n1)CCOc1cccnc1F.Cl.Cl
Your job: order these 3 records by Drug uptake, ascending. Submit the labels in the order that the ranking request calls for.
c, b, a
(c: 1.1 % ID/g, b: 2 % ID/g, a: 3.2 % ID/g)

[I] CCN(CC)Cc1ccnc(F)c1CNC(=O)c1cnc2cc([125I])ccc2n1.Cl.Cl
[II] CCN(CCCc1ccnc(F)c1)CCNC(=O)c1cnc2cc([125I])ccc2n1.Cl.Cl
I need your help: which of the pair I , II has higher Drug uptake? Please reply using the label of the selected record.
II
(II: 2.5 % ID/g, I: 1.5 % ID/g)

[1] CCN(CC)CCNC(=O)c1cnc2cc([125I])ccc2n1.Cl.Cl
[2] CCN(CCNC(=O)c1cnc2cc([125I])ccc2n1)CCNc1cccc(F)n1.Cl.Cl
I need your help: which of the pair 1 , 2 has higher Drug uptake? Please reply using the label of the selected record.
1

From: ChEMBL document CHEMBL1765071
